Attribution: the supplement of paper PMC12764529

ASSAY PROCEDURE: folding stability dG unfold (combined trypsin and chymotrypsin); higher = more stable
For each of the sequences below, state its folding stability dG unfold.
The reply should contain only the number, in kcal/mol.

**Q:** Would you mind telling me what folding stability dG unfold value was observed for SAGGSAGGSKGKKITIILPPGMPPDAIKNWLAPLGINITIEPIPVVKPKRDPDDGEETYEPYGSAGGSAGGS [r12_80_TrROS] ?
**A:** 0.579

**Q:** Now the same for SAGGDNFKIEIQFFPDGHIFILIKWPNGDWILIPVPIEYPVPKRDPDGEVKEPGPVTHTHLFLIPANDSAGG [r13_236_TrROS]
**A:** 2.74

**Q:** Now the same for SAGGSAEKPVRTLEITVTVPPGQPTPEELARALAEELGVEVTRVEVVRVERNEDGELTVTVRVEVKSAGGSA [r15_654_TrROS_Hall]
**A:** 2.99

**Q:** Now the same for SAGGMTTTTTTYTIQLPNGETLTITITTTTLPGGITVTIPIGGTSPDQIAIAKELAEKLAAEIKEAASAGGS [r8_416_JUSTAS]
**A:** 3.55

**Q:** Now the same for SAGGGMMWTVTFYPKETDTPITFPVPKEYITEIDEENNKIVIKKPPGETIEITDFNKIKSIEITPLPSAGGS [r8_111_JUSTAS]
**A:** 0.586

**Q:** Now the same for SAGGSAGGSAGGMIIKINGKYYKIKKIEKNPNGKYTITTENGKKYEFKNVKIFSEEELKSAGGSAGGSAGGS [r10_1151_TrROS_Hall]
**A:** 3.86

**Q:** Now the same for SAGGSPDIKFNEVKVELPTAETEAEFEKNTYKVEVPAPPELDITTTTTLTTSSGSTTTTTSTSPLELPSAGG [r13_191_JUSTAS]
**A:** -0.304

**Q:** Now the same for SAGGSAGGSAVTIYIPWDEILEELGLPPEDVEYKPMKNGSYSFKYKNGKPVTIIMPPEDFKSAGGSAGGSAG [r3_477_TrROS]
**A:** 0.663

**Q:** Now the same for SAGGSAGGSAGGKLTLKLGDYEVEVEWNPDEDVFIAEFPGDPRIARLRIPDDKIEIEPIESAGGSAGGSAGG [r7_156_TrMRF]
**A:** 0.392

**Q:** Now the same for SAGGSAKYYYIVAEIDLPNKKVRFVKKVKKGDVEKFKAEIKKAFPGKKIKVKVIEFESEEEAKKAASAGGSA [r15_889_TrMRF]
**A:** 4.01
